- assayed-target: CYP1A2 (Homo sapiens)
- Sequence (P05177 1-516): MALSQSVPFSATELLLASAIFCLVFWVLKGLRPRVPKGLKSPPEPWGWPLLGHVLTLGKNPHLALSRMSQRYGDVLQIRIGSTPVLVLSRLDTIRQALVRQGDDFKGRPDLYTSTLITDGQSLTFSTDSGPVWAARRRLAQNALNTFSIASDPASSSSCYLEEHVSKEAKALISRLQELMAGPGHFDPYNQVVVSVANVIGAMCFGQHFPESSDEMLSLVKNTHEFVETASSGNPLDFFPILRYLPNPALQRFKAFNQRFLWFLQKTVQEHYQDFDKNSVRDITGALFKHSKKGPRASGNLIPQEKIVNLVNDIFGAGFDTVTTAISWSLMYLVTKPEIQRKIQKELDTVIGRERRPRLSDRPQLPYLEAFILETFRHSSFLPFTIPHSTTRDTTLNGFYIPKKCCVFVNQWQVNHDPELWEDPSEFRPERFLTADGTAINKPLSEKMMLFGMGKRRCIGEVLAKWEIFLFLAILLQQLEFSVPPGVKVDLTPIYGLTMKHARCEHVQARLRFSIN
pIC50: −log10 of the molar value.

>  <compound>
C[C@@H]1CCO[C@H]2Cn3cc(C(=O)NCc4ccc(F)cc4F)c(=O)c(O)c3C(=O)N12 [Dolutegravir, dolutegravir]

>  <pIC50>
< 4.30

$$$$

====

- assayed-target: MRP4 (Homo sapiens, UniProt O15439)
- Sequence (O15439 1-1325): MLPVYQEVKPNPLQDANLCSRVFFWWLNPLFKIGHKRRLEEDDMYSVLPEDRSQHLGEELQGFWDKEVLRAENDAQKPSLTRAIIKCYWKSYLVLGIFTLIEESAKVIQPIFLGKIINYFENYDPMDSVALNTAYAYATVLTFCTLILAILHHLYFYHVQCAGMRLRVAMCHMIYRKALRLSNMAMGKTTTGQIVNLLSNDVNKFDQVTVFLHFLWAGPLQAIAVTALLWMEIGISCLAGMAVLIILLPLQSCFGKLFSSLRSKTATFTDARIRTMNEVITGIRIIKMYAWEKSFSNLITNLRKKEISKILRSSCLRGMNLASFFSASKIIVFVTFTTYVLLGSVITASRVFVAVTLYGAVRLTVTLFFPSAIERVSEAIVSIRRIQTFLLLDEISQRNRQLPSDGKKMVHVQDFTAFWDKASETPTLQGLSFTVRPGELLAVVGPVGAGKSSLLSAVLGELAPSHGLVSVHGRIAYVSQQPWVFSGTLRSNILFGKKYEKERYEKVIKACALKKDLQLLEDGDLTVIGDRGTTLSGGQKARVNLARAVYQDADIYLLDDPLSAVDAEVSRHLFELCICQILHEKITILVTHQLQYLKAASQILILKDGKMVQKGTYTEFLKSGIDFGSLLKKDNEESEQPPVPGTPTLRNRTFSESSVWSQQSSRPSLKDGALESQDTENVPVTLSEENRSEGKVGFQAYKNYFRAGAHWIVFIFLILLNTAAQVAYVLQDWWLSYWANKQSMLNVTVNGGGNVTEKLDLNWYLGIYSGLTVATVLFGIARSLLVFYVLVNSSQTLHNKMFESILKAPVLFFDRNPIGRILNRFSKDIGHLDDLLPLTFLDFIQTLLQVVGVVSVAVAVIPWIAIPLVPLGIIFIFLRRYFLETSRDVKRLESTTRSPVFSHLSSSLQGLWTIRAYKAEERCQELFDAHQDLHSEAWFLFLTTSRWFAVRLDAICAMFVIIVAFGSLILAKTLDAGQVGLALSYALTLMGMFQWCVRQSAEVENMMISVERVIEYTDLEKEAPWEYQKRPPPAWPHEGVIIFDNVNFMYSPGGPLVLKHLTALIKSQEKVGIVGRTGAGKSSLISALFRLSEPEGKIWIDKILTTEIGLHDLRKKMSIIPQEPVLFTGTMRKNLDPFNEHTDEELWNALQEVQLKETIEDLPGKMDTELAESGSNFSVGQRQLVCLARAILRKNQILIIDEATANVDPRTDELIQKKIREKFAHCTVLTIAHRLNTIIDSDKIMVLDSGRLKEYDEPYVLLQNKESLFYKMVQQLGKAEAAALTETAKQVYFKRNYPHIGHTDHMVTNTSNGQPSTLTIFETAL
pIC50: −log10 of the molar value.

>  <molecule>
C[C@@H]1CCO[C@H]2Cn3cc(C(=O)NCc4ccc(F)cc4F)c(=O)c(O)c3C(=O)N12

>  <assayed-target>
MRP4 (Homo sapiens, UniProt O15439)

>  <pIC50>
< 4.30

$$$$

====

- assayed-target: OAT3 (Homo sapiens)
- Sequence (Q8TCC7 whole entry): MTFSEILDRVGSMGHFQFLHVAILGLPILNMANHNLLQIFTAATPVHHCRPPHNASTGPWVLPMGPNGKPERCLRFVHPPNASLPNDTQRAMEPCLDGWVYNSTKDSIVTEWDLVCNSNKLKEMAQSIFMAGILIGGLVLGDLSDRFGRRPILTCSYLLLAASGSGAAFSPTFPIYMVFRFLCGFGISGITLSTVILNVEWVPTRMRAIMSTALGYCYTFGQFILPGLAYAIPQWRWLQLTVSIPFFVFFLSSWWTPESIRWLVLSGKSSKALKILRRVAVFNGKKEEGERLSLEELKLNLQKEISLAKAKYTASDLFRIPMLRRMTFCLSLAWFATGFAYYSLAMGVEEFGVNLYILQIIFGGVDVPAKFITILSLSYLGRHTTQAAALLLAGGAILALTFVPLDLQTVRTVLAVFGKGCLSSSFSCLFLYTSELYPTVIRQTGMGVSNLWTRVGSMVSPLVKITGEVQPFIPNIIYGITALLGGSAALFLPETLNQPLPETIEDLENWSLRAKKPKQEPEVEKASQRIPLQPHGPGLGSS
- assay-protocol: In vitro inhibition of OAT3
- Assay type: in vitro ADME
pIC50: −log10 of the molar value.

>  <molecule>
C[C@@H]1CCO[C@H]2Cn3cc(C(=O)NCc4ccc(F)cc4F)c(=O)c(O)c3C(=O)N12

>  <pIC50>
5.71

$$$$

====

Target chain: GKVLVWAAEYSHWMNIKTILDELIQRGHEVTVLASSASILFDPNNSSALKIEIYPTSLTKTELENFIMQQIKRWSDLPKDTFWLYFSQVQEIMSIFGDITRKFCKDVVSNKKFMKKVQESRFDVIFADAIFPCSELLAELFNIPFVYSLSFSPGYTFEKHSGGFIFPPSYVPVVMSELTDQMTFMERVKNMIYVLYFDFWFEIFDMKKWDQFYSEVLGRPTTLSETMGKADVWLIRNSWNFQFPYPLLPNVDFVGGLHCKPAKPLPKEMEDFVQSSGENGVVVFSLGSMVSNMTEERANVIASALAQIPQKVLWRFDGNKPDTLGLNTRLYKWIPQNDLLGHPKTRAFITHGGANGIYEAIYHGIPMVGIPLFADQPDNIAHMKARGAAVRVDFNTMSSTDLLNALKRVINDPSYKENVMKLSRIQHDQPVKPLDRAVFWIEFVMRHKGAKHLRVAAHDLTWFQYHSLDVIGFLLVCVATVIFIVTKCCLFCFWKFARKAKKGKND
pIC50: −log10 of the molar value.

>  <molecule>
C[C@@H]1CCO[C@H]2Cn3cc(C(=O)NCc4ccc(F)cc4F)c(=O)c(O)c3C(=O)N12

>  <pIC50>
< 4.30

$$$$

====

- assayed-target: CYP2C8 (Homo sapiens, UniProt P10632)
- Sequence (P10632 1-490): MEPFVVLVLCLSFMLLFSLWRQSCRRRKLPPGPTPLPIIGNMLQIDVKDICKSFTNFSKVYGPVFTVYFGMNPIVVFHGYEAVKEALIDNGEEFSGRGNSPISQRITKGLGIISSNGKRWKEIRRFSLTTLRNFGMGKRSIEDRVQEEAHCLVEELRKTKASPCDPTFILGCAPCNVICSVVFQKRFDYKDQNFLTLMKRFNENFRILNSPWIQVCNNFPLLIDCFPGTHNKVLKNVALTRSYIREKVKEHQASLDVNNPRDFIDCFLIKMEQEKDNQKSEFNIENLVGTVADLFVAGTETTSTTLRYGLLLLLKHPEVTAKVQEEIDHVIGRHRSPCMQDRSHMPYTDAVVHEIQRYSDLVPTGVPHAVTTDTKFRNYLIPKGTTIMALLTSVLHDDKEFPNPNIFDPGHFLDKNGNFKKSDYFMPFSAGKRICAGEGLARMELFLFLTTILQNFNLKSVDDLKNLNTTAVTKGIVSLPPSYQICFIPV
pIC50: −log10 of the molar value.

>  <compound>
C[C@@H]1CCO[C@H]2Cn3cc(C(=O)NCc4ccc(F)cc4F)c(=O)c(O)c3C(=O)N12 [Dolutegravir, dolutegravir]

>  <pIC50>
< 4.30

$$$$

====

- assayed-target: multidrug resistance protein (MRP)2 (Homo sapiens, UniProt Q92887)
- Sequence (Q92887 whole entry): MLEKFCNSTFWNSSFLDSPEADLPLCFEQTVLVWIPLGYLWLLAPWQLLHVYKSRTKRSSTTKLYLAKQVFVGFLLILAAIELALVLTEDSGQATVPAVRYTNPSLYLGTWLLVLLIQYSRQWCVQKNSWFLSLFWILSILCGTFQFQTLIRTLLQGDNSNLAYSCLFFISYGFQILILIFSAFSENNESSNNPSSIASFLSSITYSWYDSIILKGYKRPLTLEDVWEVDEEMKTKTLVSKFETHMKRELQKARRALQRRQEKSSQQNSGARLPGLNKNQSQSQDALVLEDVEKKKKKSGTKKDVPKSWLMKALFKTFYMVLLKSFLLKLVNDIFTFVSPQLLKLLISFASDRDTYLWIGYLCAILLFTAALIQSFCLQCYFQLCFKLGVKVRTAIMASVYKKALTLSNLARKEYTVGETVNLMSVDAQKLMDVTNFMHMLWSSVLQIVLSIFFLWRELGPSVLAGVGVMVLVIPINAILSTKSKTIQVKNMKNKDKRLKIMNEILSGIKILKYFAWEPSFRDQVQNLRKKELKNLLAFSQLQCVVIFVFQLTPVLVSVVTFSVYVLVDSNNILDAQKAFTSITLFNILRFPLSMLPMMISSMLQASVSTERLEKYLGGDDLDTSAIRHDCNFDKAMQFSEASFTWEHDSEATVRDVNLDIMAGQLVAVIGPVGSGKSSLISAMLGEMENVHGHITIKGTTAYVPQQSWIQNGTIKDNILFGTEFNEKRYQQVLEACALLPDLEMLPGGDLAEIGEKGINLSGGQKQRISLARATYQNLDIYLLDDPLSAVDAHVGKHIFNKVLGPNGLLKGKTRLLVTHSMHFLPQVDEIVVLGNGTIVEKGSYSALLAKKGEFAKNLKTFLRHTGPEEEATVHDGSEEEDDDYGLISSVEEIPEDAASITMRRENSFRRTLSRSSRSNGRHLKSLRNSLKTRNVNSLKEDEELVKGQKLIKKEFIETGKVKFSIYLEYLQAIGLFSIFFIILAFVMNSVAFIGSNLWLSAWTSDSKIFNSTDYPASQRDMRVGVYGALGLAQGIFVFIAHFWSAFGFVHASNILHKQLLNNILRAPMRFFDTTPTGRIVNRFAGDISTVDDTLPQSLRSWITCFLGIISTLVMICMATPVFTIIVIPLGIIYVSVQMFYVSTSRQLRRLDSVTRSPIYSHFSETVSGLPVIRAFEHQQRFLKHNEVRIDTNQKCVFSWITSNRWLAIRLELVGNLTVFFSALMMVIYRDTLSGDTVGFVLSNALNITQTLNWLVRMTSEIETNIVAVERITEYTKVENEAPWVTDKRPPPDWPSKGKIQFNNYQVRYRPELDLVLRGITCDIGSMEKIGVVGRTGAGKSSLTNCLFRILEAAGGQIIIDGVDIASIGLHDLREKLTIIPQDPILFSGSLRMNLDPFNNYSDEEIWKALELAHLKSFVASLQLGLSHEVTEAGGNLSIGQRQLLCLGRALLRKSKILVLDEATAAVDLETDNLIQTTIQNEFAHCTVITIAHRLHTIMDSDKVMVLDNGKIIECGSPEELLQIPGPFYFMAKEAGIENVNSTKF
- assay-protocol: In vitro inhibition of MRP2
- particulars: did not inhibit
pIC50: −log10 of the molar value.

>  <molecule>
C[C@@H]1CCO[C@H]2Cn3cc(C(=O)NCc4ccc(F)cc4F)c(=O)c(O)c3C(=O)N12 [Dolutegravir, dolutegravir]

>  <pIC50>
< 4.30

$$$$

====

- Tested on: CYP3A
- assay-protocol: In vitro inhibition of CYP3A
- Assay type: in vitro ADME
- particulars: human, did not inhibit
measure-name: IC50

>  <molecule>
C[C@@H]1CCO[C@H]2Cn3cc(C(=O)NCc4ccc(F)cc4F)c(=O)c(O)c3C(=O)N12

>  <measure-name>
IC50

>  <recorded-measurement>
> 50 µM

$$$$

====

- Tested on: HIV-1 clinical isolates (group M clades A-G, group O)
- assay-protocol: Antiviral activity in cell culture against panel of HIV-1 clinical isolates
- Format: cell-based
- particulars: Human immunodeficiency virus 1; 3 in each group of M [clades A-G], and 3 in group O
measure-name: EC50

>  <molecule>
C[C@@H]1CCO[C@H]2Cn3cc(C(=O)NCc4ccc(F)cc4F)c(=O)c(O)c3C(=O)N12

>  <recorded-measurement>
0.02 to 2.14 nM

$$$$

====

- assayed-target: BCRP (Homo sapiens, UniProt Q9UNQ0)
- Sequence (Q9UNQ0 whole entry): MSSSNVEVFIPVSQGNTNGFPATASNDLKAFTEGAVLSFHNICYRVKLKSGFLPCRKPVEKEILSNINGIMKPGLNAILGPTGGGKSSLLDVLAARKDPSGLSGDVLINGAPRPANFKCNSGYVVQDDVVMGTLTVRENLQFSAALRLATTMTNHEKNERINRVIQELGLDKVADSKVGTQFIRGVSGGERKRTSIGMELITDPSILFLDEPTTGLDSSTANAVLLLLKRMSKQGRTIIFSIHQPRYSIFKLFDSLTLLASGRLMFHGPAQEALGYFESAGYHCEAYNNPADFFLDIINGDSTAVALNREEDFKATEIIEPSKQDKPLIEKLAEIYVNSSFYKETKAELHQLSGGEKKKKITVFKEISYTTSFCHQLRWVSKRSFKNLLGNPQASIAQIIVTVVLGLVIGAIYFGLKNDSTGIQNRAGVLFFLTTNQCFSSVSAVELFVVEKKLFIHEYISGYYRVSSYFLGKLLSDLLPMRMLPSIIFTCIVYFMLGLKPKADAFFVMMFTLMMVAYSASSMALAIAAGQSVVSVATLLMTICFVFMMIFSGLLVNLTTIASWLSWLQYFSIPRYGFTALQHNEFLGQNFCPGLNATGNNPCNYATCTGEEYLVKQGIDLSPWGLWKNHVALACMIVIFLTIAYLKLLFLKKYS
- assay-protocol: In vitro inhibition of BCRP
- particulars: did not inhibit
pIC50: −log10 of the molar value.

>  <molecule>
C[C@@H]1CCO[C@H]2Cn3cc(C(=O)NCc4ccc(F)cc4F)c(=O)c(O)c3C(=O)N12

>  <assayed-target>
BCRP (Homo sapiens, UniProt Q9UNQ0)

>  <pIC50>
< 4.30

$$$$
